Biological target: rat brain N-type calcium channel subunits (α1B+α2δ+β1b cDNA subunits) (Rattus norvegicus)
Construct: expressed in transfected cells; host or cells: HEK 293 (stably, alternatively transiently, transfected)
Sequence (Q02294 whole entry): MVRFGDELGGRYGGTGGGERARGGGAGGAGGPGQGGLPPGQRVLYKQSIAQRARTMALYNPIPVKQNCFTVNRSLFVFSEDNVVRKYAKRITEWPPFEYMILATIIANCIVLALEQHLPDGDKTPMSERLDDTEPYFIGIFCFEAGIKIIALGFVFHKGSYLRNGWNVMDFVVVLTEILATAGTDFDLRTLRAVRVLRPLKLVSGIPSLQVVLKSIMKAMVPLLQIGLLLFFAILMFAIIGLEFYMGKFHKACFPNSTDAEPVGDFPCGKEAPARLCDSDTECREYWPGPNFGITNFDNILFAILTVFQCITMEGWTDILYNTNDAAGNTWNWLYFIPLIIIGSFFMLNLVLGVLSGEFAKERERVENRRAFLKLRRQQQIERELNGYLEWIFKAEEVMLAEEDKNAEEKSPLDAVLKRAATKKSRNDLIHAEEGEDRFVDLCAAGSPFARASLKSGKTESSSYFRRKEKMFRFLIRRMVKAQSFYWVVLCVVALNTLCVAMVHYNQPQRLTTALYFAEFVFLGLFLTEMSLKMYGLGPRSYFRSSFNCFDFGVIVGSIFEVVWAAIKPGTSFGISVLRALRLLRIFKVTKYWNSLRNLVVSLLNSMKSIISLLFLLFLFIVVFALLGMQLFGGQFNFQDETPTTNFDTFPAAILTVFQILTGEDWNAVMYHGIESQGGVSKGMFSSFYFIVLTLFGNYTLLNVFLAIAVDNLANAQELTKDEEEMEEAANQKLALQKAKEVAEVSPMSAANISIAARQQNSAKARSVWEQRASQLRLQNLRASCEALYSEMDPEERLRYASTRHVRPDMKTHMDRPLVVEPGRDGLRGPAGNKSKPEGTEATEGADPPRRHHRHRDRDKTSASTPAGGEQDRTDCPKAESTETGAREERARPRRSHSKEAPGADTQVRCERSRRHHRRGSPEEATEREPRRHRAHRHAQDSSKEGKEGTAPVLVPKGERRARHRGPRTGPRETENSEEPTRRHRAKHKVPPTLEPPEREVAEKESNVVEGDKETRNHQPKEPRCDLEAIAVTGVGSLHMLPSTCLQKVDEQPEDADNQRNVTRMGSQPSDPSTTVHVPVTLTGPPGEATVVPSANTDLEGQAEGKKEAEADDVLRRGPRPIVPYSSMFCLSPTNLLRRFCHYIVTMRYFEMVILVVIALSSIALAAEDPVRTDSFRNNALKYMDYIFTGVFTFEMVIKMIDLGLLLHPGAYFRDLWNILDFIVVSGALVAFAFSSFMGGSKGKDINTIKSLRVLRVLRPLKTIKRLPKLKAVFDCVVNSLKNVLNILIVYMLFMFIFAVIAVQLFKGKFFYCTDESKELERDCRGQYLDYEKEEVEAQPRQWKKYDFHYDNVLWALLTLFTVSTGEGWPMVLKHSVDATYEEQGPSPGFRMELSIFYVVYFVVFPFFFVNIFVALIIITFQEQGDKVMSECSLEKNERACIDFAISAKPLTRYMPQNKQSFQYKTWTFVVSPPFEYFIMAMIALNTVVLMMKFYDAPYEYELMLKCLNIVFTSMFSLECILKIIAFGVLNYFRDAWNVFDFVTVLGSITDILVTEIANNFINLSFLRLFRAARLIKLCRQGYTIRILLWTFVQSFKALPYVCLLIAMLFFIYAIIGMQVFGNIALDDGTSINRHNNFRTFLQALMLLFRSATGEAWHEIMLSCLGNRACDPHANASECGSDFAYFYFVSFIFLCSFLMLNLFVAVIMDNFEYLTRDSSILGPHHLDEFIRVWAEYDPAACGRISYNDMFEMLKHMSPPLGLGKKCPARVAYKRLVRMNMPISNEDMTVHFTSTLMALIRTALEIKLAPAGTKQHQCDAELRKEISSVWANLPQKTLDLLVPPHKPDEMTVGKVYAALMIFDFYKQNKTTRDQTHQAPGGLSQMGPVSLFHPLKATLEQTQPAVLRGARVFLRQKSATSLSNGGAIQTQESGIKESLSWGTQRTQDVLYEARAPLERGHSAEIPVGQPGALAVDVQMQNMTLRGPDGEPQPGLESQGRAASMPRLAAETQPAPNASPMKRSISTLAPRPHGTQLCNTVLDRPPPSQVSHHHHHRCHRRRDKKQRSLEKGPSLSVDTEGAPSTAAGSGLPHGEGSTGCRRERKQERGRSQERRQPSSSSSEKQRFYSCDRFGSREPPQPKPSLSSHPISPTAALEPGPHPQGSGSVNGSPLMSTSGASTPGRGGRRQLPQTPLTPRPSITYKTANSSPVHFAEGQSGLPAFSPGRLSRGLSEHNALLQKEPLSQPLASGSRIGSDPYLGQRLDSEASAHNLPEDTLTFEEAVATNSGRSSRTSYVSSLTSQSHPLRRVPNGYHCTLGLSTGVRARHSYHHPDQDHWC
Sequence (P54290 25-944 partner limits assumed): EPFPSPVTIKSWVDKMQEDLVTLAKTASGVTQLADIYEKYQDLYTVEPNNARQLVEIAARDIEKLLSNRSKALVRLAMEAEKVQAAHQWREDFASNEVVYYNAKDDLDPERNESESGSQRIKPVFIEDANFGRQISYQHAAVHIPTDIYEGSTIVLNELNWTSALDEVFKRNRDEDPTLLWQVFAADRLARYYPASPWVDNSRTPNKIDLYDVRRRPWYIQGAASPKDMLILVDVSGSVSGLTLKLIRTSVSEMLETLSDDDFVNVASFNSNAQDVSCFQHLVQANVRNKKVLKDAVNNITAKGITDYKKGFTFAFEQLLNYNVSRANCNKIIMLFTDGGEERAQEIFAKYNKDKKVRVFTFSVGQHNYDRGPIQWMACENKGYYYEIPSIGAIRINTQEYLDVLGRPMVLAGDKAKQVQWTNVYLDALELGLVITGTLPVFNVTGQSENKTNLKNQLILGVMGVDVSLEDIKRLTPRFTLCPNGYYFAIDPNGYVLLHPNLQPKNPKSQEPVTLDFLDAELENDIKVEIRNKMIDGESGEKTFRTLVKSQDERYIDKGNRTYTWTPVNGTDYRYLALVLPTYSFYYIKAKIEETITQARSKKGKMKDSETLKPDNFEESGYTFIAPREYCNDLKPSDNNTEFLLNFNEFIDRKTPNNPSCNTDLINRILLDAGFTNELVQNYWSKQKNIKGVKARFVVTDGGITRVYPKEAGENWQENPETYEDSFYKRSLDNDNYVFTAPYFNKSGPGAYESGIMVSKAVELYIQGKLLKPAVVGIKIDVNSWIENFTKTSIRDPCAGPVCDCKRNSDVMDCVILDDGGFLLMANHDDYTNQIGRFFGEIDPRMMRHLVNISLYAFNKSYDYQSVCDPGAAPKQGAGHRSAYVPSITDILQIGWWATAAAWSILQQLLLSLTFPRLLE
Sequence (P54290 945-1091 partner limits assumed): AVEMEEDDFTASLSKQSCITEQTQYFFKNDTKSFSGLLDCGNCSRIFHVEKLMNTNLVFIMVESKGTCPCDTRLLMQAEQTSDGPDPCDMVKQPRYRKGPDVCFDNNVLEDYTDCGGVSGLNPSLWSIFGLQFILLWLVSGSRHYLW
Sequence (P54283 whole entry partner): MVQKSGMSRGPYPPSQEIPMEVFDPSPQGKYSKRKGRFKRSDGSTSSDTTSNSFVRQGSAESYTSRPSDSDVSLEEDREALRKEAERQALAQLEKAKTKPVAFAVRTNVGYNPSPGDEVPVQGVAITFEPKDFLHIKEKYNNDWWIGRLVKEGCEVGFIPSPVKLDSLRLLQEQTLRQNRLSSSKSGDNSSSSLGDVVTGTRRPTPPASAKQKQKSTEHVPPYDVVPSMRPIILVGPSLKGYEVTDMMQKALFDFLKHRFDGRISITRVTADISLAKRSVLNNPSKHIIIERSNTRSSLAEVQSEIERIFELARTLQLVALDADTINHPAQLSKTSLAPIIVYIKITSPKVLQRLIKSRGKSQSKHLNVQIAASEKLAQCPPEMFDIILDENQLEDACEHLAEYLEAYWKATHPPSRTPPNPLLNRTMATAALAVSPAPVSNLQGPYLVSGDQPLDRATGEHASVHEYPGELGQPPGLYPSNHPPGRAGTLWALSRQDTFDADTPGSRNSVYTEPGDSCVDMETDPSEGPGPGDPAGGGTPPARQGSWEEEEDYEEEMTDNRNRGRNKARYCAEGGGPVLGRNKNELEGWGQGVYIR
Experiment: N-type calcium channel block, whole cell patch clamp in HEK 293 cells
Assay type: cell-based
Conditions: pulse frequency 0.2 Hz (frequency dependent block); holding potential −80 mV to +10 mV; read-out: IC50 @ 0.2 Hz
Value type: IC50 (nM)

These solved cases illustrate the format of a correct answer.
| Compound | Unit info | Quantitative readout |
| --- | --- | --- |
| Cc1cc(CN2CCN(C(=O)COC(c3ccccc3)c3ccccc3)CC2)cc(Cl)n1 [Compound 40] | nM | 740 |
| O=C(COc1ccc(Cl)cc1Cl)N1CCN(C(c2ccccc2)c2ccccc2)CC1 [Compound 26] | nM | 190 |
| CN(CC(=O)N1CCN(C(c2ccccc2)c2ccccc2)CC1)C(c1ccccc1)c1ccccc1 [Compound 2] | nM | 310 |
| CN1CCC(CN2CCN(C(=O)C[S+]([O-])C(c3ccccc3)c3ccccc3)CC2)CC1 (centres unmarked) [Compound 43] | nM | 1340 |

[A] CN1CCC(CN2CCN(C(=O)CN(C)C(c3ccccc3)c3ccccc3)CC2)CC1 [Compound 12]
[B] CN(CC(=O)N1CCN(C(c2ccccc2)c2cccc(Cl)c2)CC1)C(c1ccccc1)c1ccccc1 (centres unmarked) [Compound 4]
[C] O=C(COC(c1ccccc1)c1ccccc1)N1CCN(C(c2ccccc2)c2ccccc2)CC1 [Compound 30]
[D] O=C(CNC(c1ccccc1)c1ccccc1)N1CCN(C(c2ccccc2)c2ccccc2)CC1 [Compound 1]
[E] O=C(COC(c1ccccc1)c1ccccc1)N1CCN(CC2CCOCC2)CC1 [Compound 35]
**Query** Given 5 compounds, produce a descending ranking by IC50. Answer format: list of labels, ordered as asked.
**Result** A, E, B, C, D

[P] CN(CC(=O)N1CCN(C(c2ccccc2)c2cccc(C(F)(F)F)c2)CC1)C(c1ccccc1)c1ccccc1 (centres unmarked) [Compound 7]
[Q] COCC1CN(C(=O)COC(c2ccccc2)c2ccccc2)CCN1C(c1ccccc1)c1ccccc1 (centres unmarked) [Compound 54]
**Query** Given the listed records, identify the one among P and Q with higher IC50. Answer = label.
**Result** P

[A] CN1CCC(C(c2ccccc2)N2CCN(C(=O)CN(C)C(c3ccccc3)c3ccccc3)CC2)CC1 (centres unmarked) [Compound 14]
[B] COc1cc(NCC(=O)N2CCN(C(c3ccccc3)c3ccccc3)CC2)cc(OC)c1OC [Compound 25]
**Query** Given the listed records, identify the one among A and B with higher IC50. Answer = label.
**Result** B
(B: 1500 nM, A: 440 nM)

[I] CN1CCC(C(=O)N2CCN(C(=O)CN(C)C(c3ccccc3)c3ccccc3)CC2)CC1 [Compound 11]
[II] O=C(CNc1cc(Cl)cc(Cl)c1)N1CCN(C(c2ccccc2)c2ccccc2)CC1 [Compound 22]
**Query** Given the listed records, identify the one among I and II with higher IC50. Answer = label.
**Result** I

[P] O=C(CNc1ccccc1)N1CCN(C(c2ccccc2)c2ccccc2)CC1 [Compound 16]
[Q] O=C(CNC(c1ccccc1)c1ccccc1)N1CCN(C(c2ccc(F)cc2)c2ccc(F)cc2)CC1 [Compound 29]
[R] O=C(COC(c1ccccc1)c1ccccc1)N1CCN(C(c2ccc(F)cc2)c2ccc(F)cc2)CC1 [Compound 46]
[S] O=C(CNC(c1ccccc1)c1ccccc1)N1CCN(CC2CCOCC2)CC1 [Compound 38]
**Query** Hi! Can you put these in order of IC50, lowest number first? Answer format: list of labels, ordered as asked.
**Result** Q, R, P, S
(Q: 140 nM, R: 430 nM, P: 800 nM, S: 4910 nM)

[1] O=C(CNc1cc(F)cc(F)c1)N1CCN(C(c2ccccc2)c2ccccc2)CC1 [Compound 21]
[2] O=C(CNc1cccc(Cl)c1)N1CCN(C(c2ccccc2)c2ccccc2)CC1 [Compound 18]
**Query** // which entry reports the smaller IC50, 1 or 2 ? Answer = label.
**Result** 1
(1: 700 nM, 2: 1030 nM)
